# measurement_protocol: Clearance in mouse at 1 mg/kg, iv administered as single dose
# Assay type: ADME, organism-based
# setup_conditions: in vivo
experimental_endpoint: clearance (mL/min/kg)
Form entry: value (mL/min/kg) — number only.

Exam item: Name the recorded clearance of the compound listed here: CCCCN1CCC(N(Cc2ccccc2)C(=O)Nc2ccc(Cl)c(Cl)c2)CC1
Marked response: 283

---

# measurement_protocol: Half life in mouse liver microsomes at 0.8 uM by LC-MS/MS analysis
# Type: ADME, microsome
Provide the reported half-life at 0.8 µM of each item.
Give the value, in units of min, as a plain number.

Exam item: Give me measured half-life at 0.8 µM, please, for this compound: CCCC(C)N1CCC(N(Cc2ccccc2)C(=O)Nc2cc(F)cc(C(F)(F)F)c2)CC1 (centres undefined)
Marked response: 11.8

Exam item: Dear colleague, please send me the reported half-life at 0.8 µM for CCCC(C)N1CCC(N(Cc2ccccc2)C(=O)Nc2ccc(F)c(C(F)(F)F)c2)CC1 (centres undefined) when you can.
Marked response: 23.6

The values you see were collected from ChEMBL document CHEMBL4020847.
